All values here come from ChEMBL document CHEMBL2390816.

- TARGET DESC: Glycogen synthase kinase-3 alpha (Homo sapiens, UniProt P49840)
- Sequence (P49840 whole entry): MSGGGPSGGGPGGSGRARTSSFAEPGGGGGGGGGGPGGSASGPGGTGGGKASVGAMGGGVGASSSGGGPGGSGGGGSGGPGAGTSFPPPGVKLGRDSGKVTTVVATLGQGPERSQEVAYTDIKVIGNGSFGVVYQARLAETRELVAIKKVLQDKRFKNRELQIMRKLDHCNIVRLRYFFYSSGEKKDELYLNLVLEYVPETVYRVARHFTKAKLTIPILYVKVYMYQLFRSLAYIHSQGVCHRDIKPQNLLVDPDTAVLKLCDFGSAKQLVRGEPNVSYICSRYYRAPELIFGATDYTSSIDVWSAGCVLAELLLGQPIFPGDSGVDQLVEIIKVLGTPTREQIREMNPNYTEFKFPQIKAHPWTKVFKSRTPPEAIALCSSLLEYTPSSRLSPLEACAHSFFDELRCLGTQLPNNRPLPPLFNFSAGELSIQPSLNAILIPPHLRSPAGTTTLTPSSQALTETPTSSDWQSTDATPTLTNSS
- TEST DETAILS: Inhibition of human recombinant GSK3alpha by FRET assay
Labels assigned by IC50 range: low bracket: < 9 nM; middle bracket: ≥ 9 nM and < 50 nM; high bracket: ≥ 50 nM

N#Cc1ccc(-c2ccc(CSc3nnc(-c4ccncc4)o3)cc2)cc1 | high bracket
O=[N+]([O-])c1ccccc1-c1ccc(CSc2nnc(-c3ccc4c(c3)OCO4)o2)cc1 | low bracket
N#Cc1ccc(-c2ccc(CSc3nnc(-c4ccc5c(c4)OCCO5)o3)cc2)cc1 | high bracket

Incoming: The entry to classify is CC(=O)Nc1cc(-c2nnc(SCc3ccc(-c4ccccc4C#N)cc3)o2)ccn1 ; which class holds it?
Outgoing: low bracket

Incoming: Tag the class for CC(=O)Nc1cc(-c2nnc(SCc3ccccc3)o2)ccn1
Outgoing: middle bracket

Incoming: # classify by IC50 band: O=[N+]([O-])c1cccc(-c2ccc(CSc3nnc(-c4ccc5c(c4)OCO5)o3)cc2)c1
Outgoing: middle bracket

###

- TARGET DESC: Aurora kinase A (Homo sapiens, UniProt O14965)
- Sequence (O14965 whole entry): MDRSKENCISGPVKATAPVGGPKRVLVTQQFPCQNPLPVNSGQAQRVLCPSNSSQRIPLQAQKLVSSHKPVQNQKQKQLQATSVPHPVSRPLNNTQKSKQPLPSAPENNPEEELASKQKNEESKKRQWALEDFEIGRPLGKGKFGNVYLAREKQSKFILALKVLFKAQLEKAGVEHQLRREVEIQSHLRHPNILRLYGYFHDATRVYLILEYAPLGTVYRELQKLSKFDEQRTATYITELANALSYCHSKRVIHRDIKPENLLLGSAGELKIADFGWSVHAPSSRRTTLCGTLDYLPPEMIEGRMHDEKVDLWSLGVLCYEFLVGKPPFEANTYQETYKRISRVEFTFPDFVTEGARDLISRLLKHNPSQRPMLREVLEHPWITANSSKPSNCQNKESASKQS
- TEST DETAILS: Inhibition of human recombinant AURKA by FRET assay
pIC50: −log10 of the molar value.
Recorded pIC50 values for a group of molecules are listed next.

Some molecules with recorded pIC50:
N#Cc1cccc(-c2ccc(CSc3nnc(-c4ccc5c(c4)OCCO5)o3)cc2)c1 | < 4.00
Fc1cc(F)cc(-c2ccc(CSc3nnc(-c4ccc5c(c4)OCCO5)o3)cc2)c1 | < 4.00
N#Cc1cc(F)ccc1-c1ccc(CSc2nnc(-c3ccncc3)o2)cc1 | < 4.00
COc1ccc(-c2ccc(CSc3nnc(-c4ccncc4)o3)cc2)cc1 | < 4.00
O=[N+]([O-])c1ccccc1-c1ccc(CSc2nnc(-c3ccncc3)o2)cc1 | 5.30

We next turn to a different molecule, shown below.
# pIC50 of CC(=O)Nc1cc(-c2nnc(SCc3cccc(C#N)c3)o2)ccn1 = < 4.00

###

- TARGET DESC: Glycogen synthase kinase-3 beta (Homo sapiens)
- Sequence (P49841 whole entry): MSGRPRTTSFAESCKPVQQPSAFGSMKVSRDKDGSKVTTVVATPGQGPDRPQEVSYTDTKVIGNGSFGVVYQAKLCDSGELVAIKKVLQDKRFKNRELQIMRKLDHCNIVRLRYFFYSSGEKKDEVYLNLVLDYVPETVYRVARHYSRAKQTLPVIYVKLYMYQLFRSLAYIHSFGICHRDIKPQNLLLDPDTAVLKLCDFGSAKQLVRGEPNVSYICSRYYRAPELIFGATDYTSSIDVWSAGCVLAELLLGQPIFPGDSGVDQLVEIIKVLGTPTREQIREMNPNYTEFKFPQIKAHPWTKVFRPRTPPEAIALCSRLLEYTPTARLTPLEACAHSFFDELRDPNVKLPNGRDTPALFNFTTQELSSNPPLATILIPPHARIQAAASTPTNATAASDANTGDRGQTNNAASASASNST
- TEST DETAILS: Inhibition of human recombinant GSK3beta by FRET assay
Reported values of IC50 for individual entries
Give the number; µM is assumed, so skip it.

In the examples that follow, each entry is paired with its recorded IC50.
O=[N+]([O-])c1cccc(-c2ccc(CSc3nnc(-c4ccc5c(c4)OCO5)o3)cc2)c1 | 0.086
CC(=O)Nc1cc(-c2nnc(SCc3ccc(-c4ccccc4C#N)cc3)o2)ccn1 | 0.017
N#Cc1cccc(-c2ccc(CSc3nnc(-c4ccc5c(c4)OCO5)o3)cc2)c1 | 0.029
COc1ccc(-c2ccc(CSc3nnc(-c4ccc5c(c4)OCO5)o3)cc2)c(C#N)c1 | 0.014
COc1ccc(-c2ccc(CSc3nnc(-c4ccc5c(c4)OCCO5)o3)cc2)cc1 | 0.127
N#Cc1cc(F)ccc1-c1ccc(CSc2nnc(-c3ccncc3)o2)cc1 | 0.056
N#Cc1ccc(-c2ccc(CSc3nnc(-c4ccc5c(c4)OCCO5)o3)cc2)cc1 | 2
CC(=O)Nc1cc(-c2nnc(SCc3ccccc3)o2)ccn1 | 0.035
O=[N+]([O-])c1ccccc1-c1ccc(CSc2nnc(-c3ccc4c(c3)OCO4)o2)cc1 | 0.027
N#Cc1ccc(-c2ccc(CSc3nnc(-c4ccncc4)o3)cc2)cc1 | 0.153

The recorded IC50 with Glycogen synthase kinase-3 beta (Homo sapiens) for N#Cc1cccc(-c2ccc(CSc3nnc(-c4ccc5c(c4)OCCO5)o3)cc2)c1 was 0.225

The compound Fc1cc(F)cc(-c2ccc(CSc3nnc(-c4ccc5c(c4)OCO5)o3)cc2)c1 , tested on Glycogen synthase kinase-3 beta (Homo sapiens), showed IC50 of 0.195

COc1ccc(-c2ccc(CSc3nnc(-c4ccc5c(c4)OCCO5)o3)cc2)c(C#N)c1 tested on Glycogen synthase kinase-3 beta (Homo sapiens) gave IC50: 0.032

Form field IC50 for item COc1ccc(-c2ccc(CSc3nnc(-c4ccncc4)o3)cc2)cc1 on Glycogen synthase kinase-3 beta (Homo sapiens): 0.176
